assay.system: recombinant PTP1B catalytic domain (Homo sapiens, UniProt P18031)
Sequence (P18031 3-277 limits assumed): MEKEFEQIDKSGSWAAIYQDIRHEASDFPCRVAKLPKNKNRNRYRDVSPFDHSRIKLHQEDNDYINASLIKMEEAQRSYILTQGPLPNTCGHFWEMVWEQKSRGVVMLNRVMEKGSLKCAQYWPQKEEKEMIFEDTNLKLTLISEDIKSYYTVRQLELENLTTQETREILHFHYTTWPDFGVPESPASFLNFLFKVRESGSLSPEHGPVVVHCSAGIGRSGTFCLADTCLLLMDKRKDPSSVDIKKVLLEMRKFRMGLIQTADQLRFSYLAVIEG
protocol.summary: PTP1B inhibition assay (pNPP substrate)
applied.conditions: pNPP as substrate, absorbance at 405 nm, 37 °C; read-out: IC50, inhibitory activity against PTP1B
value.type: IC50 (µM)

INSERT INTO measurements (compound, numeric_result) VALUES
  ('C/C(=C\CCC(CO)CCC/C(=C/C(=O)c1cc(O)ccc1O)C(=O)O)COC(=O)/C=C/c1ccc(O)c(O)c1 (stereo not shown)', 20),
  ('CC(=O)OCC(CC/C=C(\C)COC(=O)/C=C/c1ccc(O)cc1)CCC/C(=C/C(=O)c1cc(O)ccc1O)C(=O)O (stereo not shown)', 23),
  ('CC(=O)OCC(CC/C=C(/CC(=O)c1cc(O)ccc1O)C(=O)O)CC/C=C(\C)COC(=O)/C=C/c1ccc(O)cc1 (stereo not shown)', 19),
  ('C/C(=C\CC/C(=C/CC/C(=C/C(=O)c1cc(O)ccc1O)C(=O)O)CO)COC(=O)/C=C/c1ccc(O)cc1', 17);
